Target: T1, 4H2151-AA
T1 chain: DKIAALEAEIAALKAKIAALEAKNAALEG
Assay: two-hybrid library CCmax;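 also: natural log of median RNA to DNA barcode read ratio; higher means stronger binding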
Settings: mean of both orientations
property: interaction score

Consider the following illustrative entries.
- binder: "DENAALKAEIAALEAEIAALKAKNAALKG [4H1552-AA]"
  interaction score: -0.598
- binder: "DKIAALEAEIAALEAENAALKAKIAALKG [4H2078-AA]"
  interaction score: -1.39
- binder: "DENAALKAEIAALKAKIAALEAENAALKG [4H1636-AA]"
  interaction score: -0.999

I. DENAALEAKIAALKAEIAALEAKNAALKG [4H1352-AA]
II. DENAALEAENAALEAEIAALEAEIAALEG [4H1153-AA]
INPUT: Between I and II , which one has the lower reported interaction score value? Identify your pick by its label.
OUTPUT: II
(II: -1.21, I: -0.65)

A. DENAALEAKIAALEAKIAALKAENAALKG [4H1324-AA]
B. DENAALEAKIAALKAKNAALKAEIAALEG [4H1401-AA]
INPUT: Lower value of interaction score belongs to which: A or B ? Return value: the label identifying the chosen record.
OUTPUT: B
(B: -1.5, A: -0.928)
